# Test system: Escherichia coli
# ASSAY: Antimicrobial activity against Escherichia coli at 20 uL after 18 to 24 hrs by disk diffusion method
# Assay type: functional
MEASURED_PROPERTY: diameter of the inhibition zone (DIZ) (mm)
Field format: number, assumed mm, no unit text.

# example entries with known answers
CCCCOC(=O)[C@H](COC(C)=O)NC(=O)c1cccnc1O: 7
CCCCCCCC(=O)OC[C@H](NC(=O)c1cccnc1O)C(=O)OCCCC: 7
CCCC[C@H]1C(=O)O[C@H](C)[C@H](NC(=O)c2cccc(NC=O)c2O)C(=O)O[C@@H](C)[C@@H]1OC(=O)CC(C)C [ANTIMYCIN A3]: 7

Continue with the next compound.
Can you look up the measured diameter of the inhibition zone (DIZ) of `CCCCOC(=O)[C@H](COC(=O)CCc1ccccc1)NC(=O)c1cccnc1O` for me?
7.83

----------
# System: Candida albicans
# ASSAY: Antimicrobial activity against Candida albicans after 18 to 24 hrs at 20 uL by disk diffusion assay
# Format: functional
Entries annotated with measured diameter of the inhibition zone (DIZ)
Answer in mm, number only, no unit symbol.

CCCC[C@H]1C(=O)O[C@H](C)[C@H](NC(=O)c2cccc(NC=O)c2O)C(=O)O[C@@H](C)[C@@H]1OC(=O)CC(C)C [ANTIMYCIN A3]: 10

Field request: diameter of the inhibition zone (DIZ) | item: `CCCCOC(=O)[C@H](COC(=O)CCc1ccccc1)NC(=O)c1cccnc1O`
7.5

// query diameter of the inhibition zone (DIZ) value for entry `CCCCCCCC(=O)OC[C@H](NC(=O)c1cccnc1O)C(=O)OCCCC`
7.83

What does the record list as diameter of the inhibition zone (DIZ) for `CCCCOC(=O)[C@H](COC(C)=O)NC(=O)c1cccnc1O` ?
7.5

----------
# Tested on: Escherichia coli
# ASSAY: Antimicrobial activity against Escherichia coli after 18 to 24 hrs
# Assay type: functional
MEASURED_PROPERTY: MIC (µg/mL)
The figure you give is taken to be in µg/mL; do not add the unit.

CCCC[C@H]1C(=O)O[C@H](C)[C@H](NC(=O)c2cccc(NC=O)c2O)C(=O)O[C@@H](C)[C@@H]1OC(=O)CC(C)C [ANTIMYCIN A3]: 50
CCCCCCCC(=O)OC[C@H](NC(=O)c1cccnc1O)C(=O)OCCCC: 75
CCCCOC(=O)[C@H](COC(C)=O)NC(=O)c1cccnc1O: 250

Continue with the compound presented below.
Param readout = MIC; param system = Escherichia coli; param query = `CCCCOC(=O)[C@H](COC(=O)CCc1ccccc1)NC(=O)c1cccnc1O` ; response: value
1000

----------
# Tested on: Staphylococcus aureus
# ASSAY: Antimicrobial activity against Staphylococcus aureus at 20 uL after 18 to 24 hrs by disk diffusion method
# Type: functional
The entries below are paired with their reported diameter of the inhibition zone (DIZ).
Please provide the amount together with its unit, number first.

The cases that follow already have their diameter of the inhibition zone (DIZ) on record.
CCCCOC(=O)[C@H](COC(C)=O)NC(=O)c1cccnc1O: 7.5 mm
CCCCOC(=O)[C@H](COC(=O)CCc1ccccc1)NC(=O)c1cccnc1O: 7.5 mm
CCCC[C@H]1C(=O)O[C@H](C)[C@H](NC(=O)c2cccc(NC=O)c2O)C(=O)O[C@@H](C)[C@@H]1OC(=O)CC(C)C [ANTIMYCIN A3]: 8 mm

In the following, a different molecule is considered.
Fill blank: measured diameter of the inhibition zone (DIZ) of the molecule `CCCCCCCC(=O)OC[C@H](NC(=O)c1cccnc1O)C(=O)OCCCC` is ____.
7 mm
